Target: SARS-CoV-2 spike N terminal domain (NTD) (SARS-CoV-2 Wuhan-Hu-1 (QHD43416), UniProt P0DTC2)
Assay: ELISA
Metric name: binding result

Binder | Reported result
MD29 (scFv, V domains shown) VH: QMQLVQSGGGLVQPGGSLRLSCSASGFTFSTYVMNWVRQAPGKGPEHVSGISSDGGITYYADSVKGRFTISRDNSKNTLYLQMSSLRVEDTAVYYCVKDQDSSSWYDAFDIWGQGTMVTVSS VL: NIRLTQSPSSLSASVGDRVTITCRATQSISSYLNWYQQKPGKAPNLLIYAASSLQSGVPSRFSGSGSGTDFTLTISSLQPEDFATYYCHQTYTSPYTFGQGTKLEIK | no binding
MD17 (scFv, V domains shown) VH: EVQLLESGGGLVQPGGSLRLSCSASGFTFSTYVMNWVRQAPGKGLEHVSGISSDGGITYYADSVKGRFTISRDNSKNTLYLQMSSLRVEDTAVYYCVKDQDSSSWYDAFDIWGQGTMVTVSS VL: DIVMTQSPSSLSASVGDRVTITCRASQSISNYLNWYQQKLGKAPKLLTYAASRLQSGVPSRFSASGSGTEFTLTISSLQPEDFATYYCQQSYTTPLTFGGGTKLEIK | no binding
MD62 (scFv, V domains shown) VH: EVQLVQSGGGLIQPGGSLRLSCAASGVTVSSNYMTWVRQAPGKGLEWVSLIYSGGSTYYADSVKGRFTISRDNSKNTLYLQMNSLRAEDTAVYYCARDLQYYGMDVWGQGTMVTVSS VL: AIRMTQSPSSVSASVGDRVTITCRASQDIGSWLGWYQQKPGKAPKLLIYAASSLAGGVPSRFSGSGSGTDFTLTISSLQPEDFATYYCQQANSFPLTFGGGTKLEIK | no binding
MD47 (scFv, V domains shown) V domain 1: QMQLVQSGGGLVQPGGSLRLSCAASGFTFSSYAMSWVRQAPGKGLEWVSAISSGGSTYYADSVKGRFTISRDNSKNTLYLQMNSLRAEDTAVYYCAKDLVTAPSYEAFDIWGQGTMITVSS V domain 2: NFMLTQPPSVSVAPGKTARITCGGNNIGSKSVHWYQQKPGQAPVLVIYYDSDRPSGIPERFSGSNSGNTATLTISRVEAGDEADYYCQVWDSSSHHHVVFGGGTKGTVL | no binding

Where do these numbers come from? They come from paper doi:10.1101/2020.05.20.106609.
